- Method: MTT viability assay, normal colonic epithelial cells
- Assay type: cell-based, human
- Condition parameters: human, CCD 841 CoTr normal colonic epithelial cells, Non-toxic = no toxicity in tested range 1–500 μM, read-out: CC50 ± SD, CCD 841 CoTr
- Procedure: The cytotoxic effects of ten newly synthesized N-Mannich bases were assessed on the normal human intestinal epithelium (CCD 841 CoTr) and cancer cell lines: gastric cancer (EPG) and four colorectal cancer lines (Caco-2, LoVo, LoVo/Dx, and HT-29). Cell viability was evaluated using the MTT assay in accordance with Annex C of ISO 10993-5 [33]. The biological activity of the newly synthesized compounds was assessed in the context of anticancer activity. […]
Readout kind: CC50 at 24 h (µM)
Give your result in µM as a bare value.

- Molecule: "Cc1cc(C)c(C(=O)NCc2nn(CN3CCN(c4cccc(Cl)c4)CC3)c(=S)n2-c2ccccc2)c(S)n1"
  Unit: "µM"
  CC50 at 24 h: 221
- Molecule: "Cc1cc(C)c(C(=O)NCc2nn(CN3CCN(c4cccc(Cl)c4)CC3)c(=S)n2C(C)C)c(S)n1"
  Unit: "µM"
  CC50 at 24 h: 342
- Molecule: "Cc1ccc(N2CCN(Cn3nc(CNC(=O)c4c(C)cc(C)nc4S)n(C)c3=S)CC2)cc1"
  Unit: "µM"
  CC50 at 24 h: 271
- Molecule: "O=c1[nH]cc(F)c(=O)[nH]1 [Compound 5-FU, 5-fluorouracil, reference compound]"
  Unit: "µM"
  CC50 at 24 h: 61.6
- Molecule: "Cc1cc(C)c(C(=O)NCc2nn(CN3CCN(c4ccccc4)CC3)c(=S)n2-c2ccccc2)c(S)n1"
  Unit: "µM"
  CC50 at 24 h: 236

What the record says about Cc1ccc(N2CCN(Cn3nc(CNC(=O)c4c(C)cc(C)nc4S)n(-c4ccccc4)c3=S)CC2)cc1 : CC50 at 24 h is 388

What the record says about Cc1cc(C)c(C(=O)NCc2nn(CN3CCN(c4ccc([N+](=O)[O-])cc4)CC3)c(=S)n2C(C)C)c(S)n1 : CC50 at 24 h is 436
